- Test system: SNB-19 CNS
- assay.text: NCI tumour cell line growth inhibition, 48 h
Reported TGI values for the following molecules.
reported.endpoint: TGI (µM)

molecule | reported.endpoint | output.unit | value.qualifier | value.reported
COC(=O)c1ccc(Cc2cc(Cc3ccc(C(=O)OC)cc3)cc(Cc3ccc(C(=O)OC)cc3)c2)cc1 | TGI | µM | > | 25
O=C1SC(SCc2ccccc2)=NC12CC2c1ccccc1 (stereo not given) | TGI | µM | = | 71.1
Cc1cn(C2OC(CO[Si](C)(C)C(C)(C)C)C(N(C)O[Si](C)(C)C(C)(C)C)C2[Se]c2ccccc2)c(=O)[nH]c1=O (stereo not given) | TGI | µM | = | 32.2
COc1c2ccccc2c(OC)c2[nH]c(=O)ccc12 | TGI | µM | = | 4.11
O=C1/C(=C\c2ccc(Cl)cc2Cl)Sc2scc(-c3ccc(O)c(O)c3)[n+]21 | TGI | µM | = | 48.8
C=C(C)C12OC1[C@@]1(C)C(=CC2=O)CCC(O)[C@@H]1C (stereo not given in full) | TGI | µM | = | 33.2
COC(=O)c1cccc(C)c1C1CN=NC12Cc1cc(C)cc(C)c1C2=O (stereo not given) | TGI | µM | > | 100
C[C@]12c3c4cc(NC(=O)C(=O)NCc5ccc(-c6ccccn6)nc5)cc3Oc3cc(NC(=O)C(=O)NCc5ccc(-c6ccccn6)nc5)cc(c31)OC1C=C(NC(=O)C(=O)NCc3ccc(-c5ccccn5)nc3)C=C(O4)C12 (stereo not given in full) | TGI | µM | > | 100
CCOC(=O)/C(=C/c1ccc(OC)cc1)N(CC)CC | TGI | µM | > | 100
CC(N)/C(N)=N/O (stereo not given) | TGI | µM | > | 100

###

Below, each entry is listed with its recorded TGI.
- Tested on: OVCAR-5 ovarian
- assay.text: NCI tumour cell line growth inhibition, 48 h
reported.endpoint: TGI

molecule | target | value.reported
CCOC(=O)CCC(NC(=O)C(N)Cc1ccc(N(CCCl)CCCl)cc1)C(=O)OCC (centres undefined) | OVCAR-5 ovarian | 7.19 µM
CCCCCCOc1ccc(/C=N/Nc2cc(C)nc3ccc(Cl)cc23)cc1 | OVCAR-5 ovarian | 3.35 µM
Cc1ccc(S[C@@H](C)[C@@](O)(CF)CN(Cc2ccccc2)C(=O)C(F)(F)F)cc1 | OVCAR-5 ovarian | 34.8 µM
O=C1OC(c2ccccc2)=N/C1=C\c1ccc([N+](=O)[O-])cc1 | OVCAR-5 ovarian | > 100 µM
O=c1[nH]c(=O)n(C2COC(CO)C2O)cc1F (centres undefined) | OVCAR-5 ovarian | > 100 µM
CC(=O)OC1(C)N=NC2(CCCCC2)O1 (centres undefined) | OVCAR-5 ovarian | > 100 µM
Cc1[cH-]c(=O)n(-c2ccccc2)n1.[Au+].[Au].c1ccc([PH+](c2ccccc2)c2ccccc2)cc1.c1ccc([PH+](c2ccccc2)c2ccccc2)cc1 | OVCAR-5 ovarian | > 100 µM
O=c1c2cccnc2ncn1CCN1CCCCC1 | OVCAR-5 ovarian | > 100 µM
CCOC(=O)C1=C(C)N(NC(=O)Nc2ccccc2)C2(N)N(NC(=O)Nc3ccccc3)C(C)=C(C(=O)OCC)C12C(=O)OCC (centres undefined) | OVCAR-5 ovarian | > 100 µM

###

- System: CCRF-CEM leukemia
- assay.text: NCI tumour cell line growth inhibition, 48 h
Values of TGI greater than or equal to 20 µM map to yes; values below map to no.

compound | label.class
NC(Cc1ccccc1)C(=O)NC(Cc1ccccc1)NC(=O)C(Cc1c[nH]c2ccccc12)C(=O)O (stereo unspecified) | yes
COc1ccc(Cn2c(Br)c3c(c2Br)-c2nc(N)sc2CC3)cc1 | no
COC(=O)c1cccc(C)c1C1CN=NC12Cc1cc(C)cc(C)c1C2=O (stereo unspecified) | yes
COc1cc(S(=O)(=O)Nc2ccc(-c3csc(N4C(=O)CSC4c4cccc(Oc5ccccc5)c4)n3)cc2)ccc1Cl (stereo unspecified) | yes
CC(C)(CN1CCCCC1)C(/C=C/c1ccc(Cl)cc1)=N\NC(=O)N/N=C(/C=C/c1ccc(Cl)cc1)C(C)(C)CN1CCCCC1 | yes
O=C1OCC2=C1C(c1cccc(Br)c1)c1cc3c(cc1N2CCO)OCCO3 (stereo unspecified) | yes
CC(=O)Nc1cc2ccc(=O)oc2cc1Cl | yes
Cc1ccc(-c2nc(N3CCNCC3)c3oc(-c4ccc(C)cc4)nc3n2)cc1 | no
CCOC(=O)c1nnn(CCCCO)c1C(=O)OCC | yes
COc1ccc2oc3c(C)cc4c(OC)nnc(OC)c4c3c2c1 | yes
CN1C(=O)C(=O)N2c3ccc(Cl)cc3C3(c4ccccc4)N=CC12O3 (stereo unspecified) | no
O=C1CSC(=S)N1/N=C/c1ccc(Cl)c([N+](=O)[O-])c1 | yes
C=C1C[C@H](O)[C@H](Br)C(C)(C)[C@@]12CCC(C)=C(Cl)C2 | no
Cc1ccc(S(=O)(=O)N2C3C=CC(C3)[C@@H]2C(Cl)(Cl)Cl)cc1 (stereo partly specified) | yes
O=C1/C(=C\c2ccc(Cl)cc2Cl)Sc2scc(-c3ccc(O)c(O)c3)[n+]21 | yes
C=C(C)C12OC1[C@@]1(C)C(=CC2=O)CCC(O)[C@@H]1C (stereo partly specified) | no
O=C1SC(SCc2ccccc2)=NC12CC2c1ccccc1 (stereo unspecified) | no
O=C1C(Br)=C(Br)C(=O)c2ccc(=O)ccc21 | no
O=C1c2ccccc2C(=O)c2c(/C=C\N3CCCCC3)ccnc21 | yes
CCOc1ccc(NC2=CC(=O)C(=O)c3ccccc32)cc1 | yes

###

- Tested on: UACC-257 melanoma
- assay.text: NCI tumour cell line growth inhibition, 48 h
reported.endpoint: TGI (µM)

compound | value.qualifier | value.reported
COc1ccc(Cn2c(Br)c3c(c2Br)-c2nc(N)sc2CC3)cc1 | = | 22.3
Cc1cc(OC(=O)Nc2cccc3ccccc23)c(C(C)C)cc1C(=S)Nc1ccccc1 | = | 50.5
C[C@]12c3c4cc(NC(=O)C(=O)NCc5ccc(-c6ccccn6)nc5)cc3Oc3cc(NC(=O)C(=O)NCc5ccc(-c6ccccn6)nc5)cc(c31)OC1C=C(NC(=O)C(=O)NCc3ccc(-c5ccccn5)nc3)C=C(O4)C12 (stereo partly drawn) | > | 100
COc1ccccc1NC(=O)c1cc2cc(Br)ccc2cc1O | = | 5.3
COc1cc(/C=C2\CN(S(=O)(=O)c3ccc(C)cc3)C/C(=C\c3cc(CN4CCCC4)c(O)c(OC)c3)C2=O)cc(CN2CCCC2)c1O | = | 3.17
O=[N+]([O-])c1cc([N+](=O)[O-])c(C(F)(F)F)cc1NN=C(c1ccc(O)cc1)c1ccc(O)cc1 | = | 17.5
S=P1(Oc2ccccc2)NNP2(=NP(N3CC3)(N3CC3)=NP(N3CC3)(N3CC3)=N2)NN1 (stereo not drawn) | > | 100
Cc1ccc(NC2=C3CCCCC3OC2=O)cc1 (stereo not drawn) | > | 100

###

Reported GI50 is given for each of the following molecules.
- Tested on: HOP-62 NSCLC
- assay.text: NCI tumour cell line growth inhibition, 48 h

molecule | target | GI50
CN(C)CC(O)c1ccc(/C=C/c2ccc(Cl)cc2)cc1 (stereo not drawn) | HOP-62 NSCLC | 3.13 µM
NCCNCCNCCN | HOP-62 NSCLC | > 100 µM
Nc1nc2[nH]cc(CCc3ccc(C(=O)N[C@@H](CCC(=O)O)C(=O)O)cc3)c2c(=O)[nH]1 | HOP-62 NSCLC | 0.724 µM

###

Documented TGI across a set of compounds
- Tested on: KM12 colon
- assay.text: NCI tumour cell line growth inhibition, 48 h

compound | output.unit | value.qualifier | TGI
CCOC(=O)n1cc(C2=C(c3ccc(OC)c(OC)c3)COC2=O)c2ccccc21 | µM | = | 14.1
Cc1ccc(C(=O)OC(C(=O)O)C(OC(=O)c2ccc(C)cc2)C(=O)O)cc1 (centres undefined) (tested in a mixture with another compound) | µM | = | 19
CC(C)(C)[Si](C)(C)OC1[C@@H](O[Si](C)(C)C(C)(C)C)[C@@H](CNC(=O)NC(=O)C(F)(F)F)O[C@H]1n1cnc2c(NC(=O)Nc3ccccc3)ncnc21 (some centres undefined) | µM | = | 11.4
Cn1cc(-c2cc3c(N4CCN(c5ncc([C@@](C)(N)c6ccc(F)cc6)cn5)CC4)ncnn3c2)cn1 | µM | > | 100
c1ccc(Nc2ncc(-c3ccccc3)o2)cc1 | µM | > | 25
CC1(C)[C@@H](Cn2cc(I)c(=O)[nH]c2=O)CC[C@@]1(C)CO | µM | > | 100
C=C1C(=O)O[C@@H]2/C=C(C)/C=C\[C@@H]3O[C@@]3(C)C[C@@H](O)C12 (some centres undefined) | µM | = | 31.8
COc1cc(/C=C2\CN(S(=O)(=O)c3ccc(C)cc3)C/C(=C\c3cc(CN4CCCC4)c(O)c(OC)c3)C2=O)cc(CN2CCCC2)c1O | µM | = | 2.56
CC1NC(=O)C(C)C(c2ccccc2)N(N=O)C1c1ccccc1 (centres undefined) | µM | > | 100
O=C1c2c(F)c(F)c(F)c(F)c2C(=O)N1c1ccc(F)cc1F | µM | = | 65.5
O=C(/C=C/c1c(O)ccc2ccccc12)c1ccc([N+](=O)[O-])cc1 | µM | > | 100
CN(C)CC(O)c1ccc(/C=C/c2ccc(Cl)cc2)cc1 (centres undefined) | µM | = | 3.03
N#CC(C(=O)CCC(=O)Nc1ccc(Cl)c(Cl)c1)c1ccccc1 (centres undefined) | µM | > | 100
COC(=O)[C@]1(C)CCC[C@@]2(C)C1CC[C@@]13C=C(C(C)C)[C@@H](CC1=O)CC23 (some centres undefined) | µM | > | 100
CCOC(=O)c1ccc(-c2cc(C)no2)[nH]1 | µM | > | 100
NCCNCCNCCN | µM | > | 100
CCC(C)SC1SCC2C(=O)N(C)C3(CC3C)C(=O)OCC(NC(=O)c3nc4ccccc4cc3O)C(=O)NC(C)C(=O)N(C)C1C(=O)N(C)C1(CC1C)C(=O)OCC(NC(=O)c1nc3ccccc3cc1O)C(=O)NC(C)C(=O)N2C (centres undefined) | µM | = | 0.000397
COc1ccccc1NC(=O)c1cc2cc(Br)ccc2cc1O | µM | = | 10.8
O=C1c2ccccc2-n2nnnc2C2CSCN12 (centres undefined) | µM | > | 100
O=C1/C(=C/c2ccco2)NC(=S)N1CN1CCCCC1 | µM | > | 100
O=S(=O)(O)c1cc(N=Nc2c(O)ccc3ccccc23)cc2c(S(=O)(=O)O)cccc12 | µM | > | 100
NC(=S)N/N=C1\c2cc(Cl)ccc2-c2c1cc(Cl)cc2[N+](=O)[O-] | µM | = | 88.8
CC(=O)OCCOCNC(=S)N/N=C/c1ccc([N+](=O)[O-])o1 | µM | > | 100
COc1cc2c(cc1OC)C(Cl)C(c1ccc(F)cc1)=C2Cl (centres undefined) | µM | = | 32.3
CCOC(=O)/C(=C/c1ccc(OC)cc1)N(CC)CC | µM | > | 100
O=C1/C(=C\c2ccc(Cl)cc2Cl)Sc2scc(-c3ccc(O)c(O)c3)[n+]21 | µM | = | 33.9
CC(=O)OCc1ccc2c(c1)C(O)NC(=O)O2 (centres undefined) | µM | > | 100
CCCCCCOc1ccc(/C=N/Nc2cc(C)nc3ccc(Cl)cc23)cc1 | µM | = | 3.38
Nc1ncc2c(n1)-c1ccccc1OC2N1CCCCC1 (centres undefined) | µM | > | 100
